# System: Raji
# procedure.details: Inhibition of TPA-induced EBV-early antigen activation in human Raji cells at 500 molar ratio after 48 hrs relative to TPA by indirect immunofluorescence technique; values are per cent of control
# condition.set: human gammaherpesvirus 4
Decision: level, % of control beneath 30% gives condition met; level, % of control meeting or exceeding 30% gives condition not met.

Observe how each entry below is paired with its result.
[[record]]
compound = "COc1ccc(CCO[C@@H]2O[C@H](CO)[C@@H](OC(=O)/C=C/c3ccc(O)c(OC)c3)[C@H](O[C@@H]3O[C@@H](C)[C@H](O)[C@@H](O)[C@H]3O[C@@H]3O[C@H](CO)[C@H](O)[C@H](O)[C@H]3O)[C@H]2O)cc1O [GALACTOSYLMARTYNOSIDE]"
study_system = "Raji"
class = "condition not met"

[[record]]
compound = "CC(=O)O[C@@]1(C)C[C@@H](O)[C@]2(O)C=CO[C@@H](O[C@@H]3O[C@H](CO)[C@@H](O)[C@H](O)[C@H]3O)[C@@H]21"
study_system = "Raji"
class = "condition met"

[[record]]
compound = "CC(CO)c1cc2c(c(O)c1O[C@@H]1O[C@H](CO)[C@@H](O)[C@H](O)[C@H]1O)[C@@]1(C)CCC[C@](C)(CO[C@@H]3O[C@H](CO)[C@@H](O)[C@H](O)[C@H]3O)[C@@H]1CC2 (some centres not stated) [AJUGASIDE A]"
study_system = "Raji"
class = "condition met"

[[record]]
compound = "CC(=O)O[C@@]1(C)CC[C@]2(O)C=CO[C@@H](O[C@@H]3O[C@H](CO)[C@@H](O)[C@H](O)[C@H]3O)[C@@H]21 [REPTOSIDE]"
study_system = "Raji"
class = "condition met"

[[record]]
compound = "COc1ccc(CCO[C@@H]2O[C@H](CO)[C@@H](O)[C@H](O[C@@H]3O[C@@H](C)[C@H](O)[C@@H](O)[C@H]3O)[C@H]2O)cc1O [DARENDOSIDE A]"
study_system = "Raji"
class = "condition not met"


Here's an entry: C[C@]1(O)C[C@@H](O)[C@]2(O)C=CO[C@@H](O[C@H]3O[C@H](CO)[C@@H](O)[C@H](O)[C@H]3O)[C@@H]21 . Is its level, % of control below 30%?
condition not met

Decide: level, % of control of COc1ccc(CCO[C@@H]2O[C@H](CO)[C@@H](OC(=O)/C=C/c3ccc(O)c(OC)c3)[C@H](O[C@@H]3O[C@@H](C)[C@H](O)[C@@H](O)[C@H]3O)[C@H]2O)cc1O [MARTYNOSIDE A] strictly below 30%?
condition not met

----------
# procedure.details: Cytotoxicity against human Raji cells assessed as cell viability at 10 molar ratio after 48 hrs
# Type: cell-based
# condition.set: read-out: Activity
readout.type: viability at 48 h, 10 molar ratio

[[record]]
compound = "C[C@]1(O)C[C@@H](O)[C@]2(O)C=CO[C@@H](O[C@@H]3O[C@H](CO)[C@@H](O)[C@H](O)[C@H]3O)[C@@H]21 [HARPAGIDE]"
result = "> 80%"

[[record]]
compound = "CC(=O)O[C@@]1(C)C[C@@H](O)[C@]2(O)C=CO[C@@H](O[C@@H]3O[C@H](CO)[C@@H](O)[C@H](O)[C@H]3O)[C@@H]21"
result = "> 80%"


We next turn to a different compound, shown below.
Given item COc1ccc(CCO[C@@H]2O[C@H](CO)[C@@H](OC(=O)/C=C/c3ccc(O)c(OC)c3)[C@H](O[C@@H]3O[C@@H](C)[C@H](O)[C@@H](O)[C@H]3O[C@@H]3O[C@H](CO)[C@H](O)[C@H](O)[C@H]3O)[C@H]2O)cc1O [GALACTOSYLMARTYNOSIDE] , the value recorded as its viability at 48 h, 10 molar ratio is > 80%
